Molecular target: hMeprin β (Homo sapiens, UniProt Q16820)
Sequence (Q16820 62-701): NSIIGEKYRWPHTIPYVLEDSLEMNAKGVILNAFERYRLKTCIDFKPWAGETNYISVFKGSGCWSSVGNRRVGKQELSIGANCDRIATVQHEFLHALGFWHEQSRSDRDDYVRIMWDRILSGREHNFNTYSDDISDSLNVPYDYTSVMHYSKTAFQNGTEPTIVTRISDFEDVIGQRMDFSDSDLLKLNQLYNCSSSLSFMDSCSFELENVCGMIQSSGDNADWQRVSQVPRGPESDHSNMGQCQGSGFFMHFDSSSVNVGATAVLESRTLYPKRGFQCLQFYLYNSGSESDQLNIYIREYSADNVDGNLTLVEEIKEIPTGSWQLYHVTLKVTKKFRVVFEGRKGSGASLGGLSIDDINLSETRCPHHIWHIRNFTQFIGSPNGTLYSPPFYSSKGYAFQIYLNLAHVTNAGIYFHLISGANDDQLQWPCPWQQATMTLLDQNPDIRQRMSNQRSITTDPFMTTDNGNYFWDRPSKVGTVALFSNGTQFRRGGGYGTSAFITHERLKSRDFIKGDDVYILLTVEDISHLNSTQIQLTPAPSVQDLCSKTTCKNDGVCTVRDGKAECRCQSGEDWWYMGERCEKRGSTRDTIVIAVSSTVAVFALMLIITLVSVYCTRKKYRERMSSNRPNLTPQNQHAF
Assay: Enzymatic assay, cleavage of internally quenched peptide substrate, hMeprin β
Format: biochemical
pIC50: −log10 of the molar value.
Endpoint: pIC50

// below: answered compounds
Compound: COc1cc(F)c(CN(CC(=O)NO)Cc2cccc(C(=O)O)c2)c(F)c1
pIC50: 6.45

Compound: COc1cc(CN(CCC(=O)NO)Cc2cc(OC)c(OC)c(OC)c2)cc(OC)c1OC
pIC50: 4.05

Compound: COc1ccc(CN(CC(=O)NO)Cc2ccc(F)cc2)cc1
pIC50: 4.09

Compound: COc1ccc(CN(CC(=O)NO)Cc2ccc(F)c(O)c2F)cc1
pIC50: 6.48

Compound: COc1ccc(CN(CC(=O)NO)Cc2ccc(Cl)cc2)cc1
pIC50: 4.27

Compound: CC(C)(NCc1cccc(C(=O)O)c1)C(=O)NO
pIC50: 4.41

[I] COc1ccc(CN(CC(=O)NO)Cc2ccc(OC)cc2)cc1
[II] O=C(CN(Cc1ccc(-c2ccccc2)cc1)Cc1cccc(C(=O)O)c1)NO
Given the listed items, does I or II have the lesser reported pIC50? Lab note: record the label of whichever item you select.
I
(I: 4.50, II: 5.84)
